Each recorded value in this set is attributed to patent US4855497A.

tested on: Acetylcholine; assay: Activity against acetylcholine (I): inhibition of acetylcholine-induced contraction of isolated ilea; set-up: species or system SD/Slc male rats; settings: 10^-4 M; 10^-6 M acetylcholine; isolated rat ilea
Would you kindly list Percent inhibition (contractive reaction of acetylcholine) for each of these molecules?
Kindly provide the numeric value in % only, without the unit symbol.

Ask | Which Percent inhibition (contractive reaction of acetylcholine) value is on record for Cc1cccc(C)c1NC(=O)CCNCCCN(C(C)C)C(C)C ?
Reply | 0

Ask | Record: Cc1cccc(C)c1NC(=O)CCCNCCCN(CC(C)C)CC(C)C
Reply | 0

Ask | Record: CC(C)N(CCC(C(N)=O)(c1ccccc1)c1ccccn1)C(C)C (stereo not drawn) [Disopyramide, reference compound]
Reply | 89

###

tested on: Blood Sugar Level; assay: Effect on blood sugar level; type: in vivo, SD/Slc male rats; settings: 50 mg/kg perorally; 6 hr; starved overnight
value_type: Blood sugar level, 6 hr (mean ± S.E.) (mg/dL)
Kindly provide the numeric value in mg/dL only, without the unit symbol.

Ask | Param readout= Blood sugar level, 6 hr (mean ± S.E.); system= Blood Sugar Level; entry= Cc1cccc(C)c1NC(=O)CCNCCCN(C)C [Compound No. 2] ; returns value.
Reply | 64.4

Ask | Record: Cc1cccc(C)c1NC(=O)CCNCCNC(C)C [Compound No. 4]
Reply | 61.5

Ask | Record: Cc1cccc(C)c1NC(=O)CCNCCN(C(C)C)C(C)C [Compound No. 1]
Reply | 59.9

Ask | Record: Cc1cccc(C)c1NC(=O)CCNCCCN(C(C)C)C(C)C [compound 11]
Reply | 63.8

Ask | Record: CC(C)N(CCC(C(N)=O)(c1ccccc1)c1ccccn1)C(C)C (centres unmarked) [Disopyramide, reference compound]
Reply | 45.8

###

tested on: Blood Sugar Level; assay: Effect on blood sugar level; type: in vivo, SD/Slc male rats; details: 200 mg/kg perorally; 4 hr; starved overnight
value_type: Blood sugar level, 4 hr (mean ± S.E.) (mg/dL)
Kindly provide the numeric value in mg/dL only, without the unit symbol.

Ask | Which Blood sugar level, 4 hr (mean ± S.E.) value is on record for Cc1cccc(C)c1NC(=O)CCNCCCN(C)C ?
Reply | 58.3

Ask | Record: Cc1cccc(C)c1NC(=O)CCNCCCN(C(C)C)C(C)C
Reply | 53.8

Ask | Record: CC(C)N(CCC(C(N)=O)(c1ccccc1)c1ccccn1)C(C)C (centres unmarked) [Disopyramide, reference compound]
Reply | 29.7

Ask | Record: Cc1cccc(C)c1NC(=O)CCNCCN(C(C)C)C(C)C
Reply | 73.4

Ask | Record: Cc1cccc(C)c1NC(=O)CCNCCNC(C)C
Reply | 58.5

###

Would you kindly list Blood sugar level, 2 hr (mean ± S.E.) for each of these molecules?
system: Blood Sugar Level; test: Effect on blood sugar level; assay type: in vivo, SD/Slc male rats; settings: 50 mg/kg perorally; 2 hr; starved overnight
Kindly provide the numeric value in mg/dL only, without the unit symbol.

Ask | Which Blood sugar level, 2 hr (mean ± S.E.) value is on record for Cc1cccc(C)c1NC(=O)CCNCCCN(C(C)C)C(C)C [compound 11] ?
Reply | 61.8

Ask | Record: Cc1cccc(C)c1NC(=O)CCNCCNC(C)C [Compound No. 4]
Reply | 60.3

Ask | Record: Cc1cccc(C)c1NC(=O)CCNCCCN(C)C [Compound No. 2]
Reply | 61.3

Ask | Record: Cc1cccc(C)c1NC(=O)CCNCCN(C(C)C)C(C)C [Compound No. 1]
Reply | 63.0

Ask | Record: CC(C)N(CCC(C(N)=O)(c1ccccc1)c1ccccn1)C(C)C (centres unmarked) [Disopyramide, reference compound]
Reply | 46.9

###

test system: Aconitine-Induced Arrythmia; assay: Activity against aconitine-induced arrythmia in rats; assay type: in vivo, Sprague-Dowley male rats; details: aconitine 1 μg/kg/min; 5 mg/kg intravenously; untreated 35.3 min
value_type: Time required for ventricular fibrillation to occur

Ask | Param readout= Time required for ventricular fibrillation to occur; system= Aconitine-Induced Arrythmia; entry= Cc1cccc(C)c1NC(=O)CCNCCN(C(C)C)C(C)C [Compound No. 1] ; returns value.
Reply | > 120.0 min

Ask | Record: CCc1cccc(CC)c1NC(=O)CCNCCCN(CC(C)C)CC(C)C [compound 31]
Reply | > 90.0 min

Ask | Record: CCN(CC)CCCNCCC(=O)Nc1c(C)cccc1C [Compound No. 3]
Reply | > 120.0 min

###

system: Aconitine-Induced Arrythmia; assay: Activity against aconitine-induced arrythmia in rats; assay type: in vivo, Sprague-Dowley male rats; conditions: aconitine 1 μg/kg/min; 5 mg/kg intravenously; untreated 14.3 min
value_type: Time required for ventricular extrasystole to occur
Reply with the number, then its unit.

Ask | Which Time required for ventricular extrasystole to occur value is on record for CCc1cccc(CC)c1NC(=O)CCNCCCCCN(CC(C)C)CC(C)C [compound 35] ?
Reply | 24.5 min

Ask | Record: Cc1cccc(C)c1NC(=O)CCNCCCN(C)C [Compound No. 2]
Reply | 25.5 min

Ask | Record: CCN(CC)CCCNCCC(=O)Nc1c(C)cccc1C [Compound No. 3]
Reply | 27.4 min

Ask | Record: Cc1cccc(C)c1NC(=O)CCNCCN(C(C)C)C(C)C [Compound No. 1]
Reply | 45.2 min
